System: MALME-3M melanoma
Assay Overview: NCI-60 one-dose screen, 48 h (100 = growth as untreated, 0 = no growth, -100 = all killed)
Condition Set: 10 µM unless noted
About 83,000 compounds went through this panel and 20% of them were active in at least one assay; those are over-represented in the sample as a whole.
Property Label: growth (%)
Answers are plain numbers, in %.

Example compounds with recorded growth:
[
  {
    "Compound": "CNc1nnc2n(-c3ccccc3)c(=O)c3cnn(-c4ccccc4)c3n12",
    "Uom": "%",
    "Readout Number": 131
  },
  {
    "Compound": "Nc1ncnc2c1c(-c1cccc(Cl)c1)nn2CC(=O)N1CCOCC1",
    "Uom": "%",
    "Readout Number": 110
  },
  {
    "Compound": "COc1cc2ncnc(Nc3ccc(F)c(Cl)c3)c2cc1OCC(=O)N1CCN(c2ccccc2)CC1",
    "Uom": "%",
    "Readout Number": 96.3
  }
]

Here are 2 compounds. What values of growth were reported for them?
1. COc1cc2c(c(OC)c1OC)CCC(c1cccc(C(=O)Nc3ccc(C#N)cc3)c1)O2 (stereo not given)
2. COc1c(C(=O)Nc2ccc(C)c(Br)c2)ccc2ccccc12

[58.2, 84.4]

----------
Test system: BT-549 breast
Assay Overview: NCI-60 one-dose screen, 48 h (100 = growth as untreated, 0 = no growth, -100 = all killed)
Condition Set: 10 µM unless noted
Compounds without any hit were thinned out: in the full panel of roughly 83,000, 20% have a hit.
Give measured growth for each item. Keep answers brief.
Answers are plain numbers, in %.

Some compounds with known growth results, for comparison:
[
  {
    "Compound Structure": "CCN(C)S(=O)(=O)Nc1cccc(Nc2ncnc3cc(NC(=O)CCl)ccc23)c1Cl",
    "Property Label": "growth",
    "Readout Number": -4.04
  },
  {
    "Compound Structure": "O=C(NCCNc1nccc(Nc2ccc(S(=O)(=O)Nc3ccccn3)cc2)n1)c1cccc([N+](=O)[O-])c1",
    "Property Label": "growth",
    "Readout Number": 96.9
  },
  {
    "Compound Structure": "O=C(Nc1cccc(Cl)c1)Nc1cccc(Cn2c(=O)[nH]c3ccc(Oc4ncccn4)cc3c2=O)c1",
    "Property Label": "growth",
    "Readout Number": 48
  },
  {
    "Compound Structure": "COc1ccccc1NC(=O)N=Nc1c(O)[nH]c2ccccc12",
    "Property Label": "growth",
    "Readout Number": 97.9
  }
]

Lab note: need growth for O=C(O)CCN1C(=O)/C(=C/C(Cl)=C/c2ccccc2)SC1=S on BT-549 breast, anyone have it?
16.9

----------
Tested on: NCI/ADR-RES ovarian
Assay Overview: NCI-60 one-dose screen, 48 h (100 = growth as untreated, 0 = no growth, -100 = all killed)
Condition Set: 10 µM unless noted
This is part of a sample that, as a whole, favours compounds with a hit. Of some 83,000 tested, about 20% had one in any assay.
# label = bin(measured growth), where bins are lo (below 40%), mid (40% to below 90%), hi (90% or more)

Recorded results for 2 molecules are shown here.
[
  {
    "Molecule": "CCSc1nc2scc(C)c2c(=O)[nH]1",
    "Answer Label": "hi"
  },
  {
    "Molecule": "O=C(O)c1cn(C2CC2)c2cc(N3CCN(C(=O)N(c4ccccc4)c4nc(-c5ccccc5)cs4)CC3)c(F)cc2c1=O",
    "Answer Label": "lo"
  }
]

Please classify: COc1ccc(-c2ccc(=O)oc2-c2cc(OC)c(OC)c(OC)c2)cc1O
lo

Cool, now CC(C)(C)[Si](C)(C)OC1[C@@H](CNC(=O)NC(=O)NC(N)=O)O[C@@H](n2cnc3c(NC(=O)Nc4ccccc4)ncnc32)[C@H]1O[Si](C)(C)C(C)(C)C (stereo partly drawn)
mid
